- method: label from the status in PepcDB records
readout_label: protein production

NDPDADRFAVAVRKDDGEYQMLTGDQVGVLFGHYLLSHASADQRLVGTTIVSSSLLSKIANGFGVESYTTLTGFKWLMNVGIAQSQPDNQFLFAYEEALGYTVGNMVWDKDGLSALVAFAQLTAELAAKGQTIWDRLEQIYREQGFHLN : failed
MGISTNHTTFDGLSFKTFLENLASLLHEKPLSTPPCNDRTLLKARDPPSVAFPHHELVKFQDCETTTVFEATSEHLDFKIFKLSSEQIKKLKERASETSNGNVRVTGFNVVTALVWRCKALSVAAEEGEETNLERESTILYAVDIRGRLNPELPPSYTGNAVLTAYAKEKCKALLEEPFGRIVEMVGEGSKRITDEYARSAIDWGELYKGFPHGEVLVSSWWKLGFAEVEYPWGKPKYSCPVVYHRKDIVLLFPDIDGDSKGVYVLAALPSKEMSKFQHWFEDTLC : failed
